assay: Identification of oxidation resistance by ABTS+ method (Trolox standard); type: biochemical; set-up: unit not given here; settings: ABTS+ method, sample 5 mg/mL, Trolox standard curve, 734 nm
No end group written: not given here.
# Total antioxidant capacity per record follows
// no unit string in output, number only

Query: Write down Total antioxidant capacity measured for item Thr-Ser-Ser-Leu-Pro (TSSLP; listed as Pisum sativum) [standard synthetic peptide segment identified in the selenium-chelating pea oligopeptide]
Response: 5.55

Query: Write down Total antioxidant capacity measured for item PPKIYP [standard synthetic peptide segment identified in the selenium-chelating pea oligopeptide]
Response: 211.12

Query: Write down Total antioxidant capacity measured for item TGRGAP [standard synthetic peptide segment identified in the selenium-chelating pea oligopeptide]
Response: 3.25

Query: Write down Total antioxidant capacity measured for item HQMPKP [standard synthetic peptide segment identified in the selenium-chelating pea oligopeptide]
Response: −9.53
